target-system: protein-protein interaction between SOS1 and KRAS G12C (Homo sapiens, UniProt Q07889)
Construct: purchased Cisbio 64KRASG12PEG
Sequence (Q07889 whole entry, stated change not applied): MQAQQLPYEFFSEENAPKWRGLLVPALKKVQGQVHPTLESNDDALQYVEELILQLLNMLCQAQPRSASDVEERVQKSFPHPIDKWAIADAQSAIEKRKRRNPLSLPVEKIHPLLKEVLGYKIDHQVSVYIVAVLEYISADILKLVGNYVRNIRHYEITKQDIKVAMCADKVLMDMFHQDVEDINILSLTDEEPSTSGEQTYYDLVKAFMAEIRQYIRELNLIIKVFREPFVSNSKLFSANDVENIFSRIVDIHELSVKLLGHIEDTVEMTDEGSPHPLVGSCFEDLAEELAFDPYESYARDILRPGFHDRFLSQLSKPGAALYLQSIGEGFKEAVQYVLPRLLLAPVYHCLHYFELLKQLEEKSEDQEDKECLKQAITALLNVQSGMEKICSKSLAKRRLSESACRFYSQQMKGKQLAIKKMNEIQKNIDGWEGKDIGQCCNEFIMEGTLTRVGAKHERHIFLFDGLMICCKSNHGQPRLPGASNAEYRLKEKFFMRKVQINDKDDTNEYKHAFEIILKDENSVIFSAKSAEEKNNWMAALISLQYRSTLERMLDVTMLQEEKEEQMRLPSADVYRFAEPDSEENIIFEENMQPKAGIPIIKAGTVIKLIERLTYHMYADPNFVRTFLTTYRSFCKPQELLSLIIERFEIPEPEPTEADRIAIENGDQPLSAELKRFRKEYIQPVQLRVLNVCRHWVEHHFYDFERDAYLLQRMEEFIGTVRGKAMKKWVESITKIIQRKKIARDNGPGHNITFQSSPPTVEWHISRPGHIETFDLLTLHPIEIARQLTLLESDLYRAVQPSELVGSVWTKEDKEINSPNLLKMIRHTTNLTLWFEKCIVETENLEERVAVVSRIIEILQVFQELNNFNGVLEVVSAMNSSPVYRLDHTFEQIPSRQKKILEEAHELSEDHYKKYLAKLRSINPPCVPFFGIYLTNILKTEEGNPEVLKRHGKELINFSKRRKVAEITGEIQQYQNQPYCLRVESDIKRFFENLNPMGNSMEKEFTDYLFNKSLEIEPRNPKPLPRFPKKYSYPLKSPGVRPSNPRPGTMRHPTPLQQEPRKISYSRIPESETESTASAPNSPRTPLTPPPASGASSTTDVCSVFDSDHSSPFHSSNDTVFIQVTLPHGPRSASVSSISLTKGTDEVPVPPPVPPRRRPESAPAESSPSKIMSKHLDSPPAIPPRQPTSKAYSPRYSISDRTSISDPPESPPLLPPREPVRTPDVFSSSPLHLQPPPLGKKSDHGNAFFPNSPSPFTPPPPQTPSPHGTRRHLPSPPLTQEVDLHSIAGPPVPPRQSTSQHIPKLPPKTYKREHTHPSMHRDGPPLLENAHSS
assay-overview: KRAS::SOS1 HTRF binding analysis (KRAS G12C/SOS1 binding kit)
measurement-parameters: compound at 0.1 uM

compound	inhibition at 0.1 µM
C[C@@H](Nc1cnnc2ccc(N3CC(C)(O)C3)cc12)c1cccc(C(F)F)c1F [Example 32]	0 to 40%
C[C@@H](Nc1cnnc2ccc(N3CCC(O)CC3)cc12)c1cccc(C(F)F)c1F [Example 18]	70 to 100%
C[C@@H](Nc1cnnc2ccc(N[C@@H]3CCNC3)cc12)c1cccc(C(F)F)c1F [Example 39]	70 to 100%
C[C@@H](Nc1cnnc2ccc(N3CCN(C4COC4)CC3)cc12)c1cccc(C(F)F)c1F [Example 8]	0 to 40%
COC1CC2(C1)CN(c1ccc3nncc(N[C@H](C)c4cccc(C(F)F)c4F)c3c1)C2 [Example 34]	0 to 40%
CC(=O)N1CC=C(c2ccc3nncc(N[C@H](C)c4cccc(C(F)F)c4F)c3c2)CC1 [Example 1]	0 to 40%
Cc1c(C#N)cccc1[C@@H](C)Nc1cnnc2ccc(N3CCC(C)(O)CC3)cc12 [Example 51]	0 to 40%
C[C@@H](Nc1cnnc2ccc(N3CC[C@@H](F)C3)cc12)c1cccc(C(F)F)c1F [Example 25]	0 to 40%
C[C@@H](Nc1cnnc2ccc(N[C@@H]3CCOC3)cc12)c1cccc(C(F)F)c1F [Example 35]	0 to 40%
C[C@@H](Nc1cnnc2ccc(N3CC4CC(C3)O4)cc12)c1cccc(F)c1F [Example 56]	0 to 40%
C[C@@H](Nc1cnnc2ccc(N3CC[C@H](F)C3)cc12)c1cccc(C(F)F)c1F [Example 26]	0 to 40%
C[C@@H](Nc1cnnc2ccc(N3CCC[C@@H](O)C3)cc12)c1cccc(C(F)F)c1F [Example 20]	0 to 40%
C[C@@H](Nc1cnnc2ccc(N3C[C@@H]4C[C@H]3CO4)cc12)c1cccc(C(F)F)c1F [Example 14]	0 to 40%
C[C@@H](Nc1cnnc2ccc(N3CCN(C(=O)C4CCOCC4)CC3)cc12)c1cccc(C(F)F)c1F [Example 63]	40 to 70%
C[C@@H](Nc1cnnc2ccc(N3CCN(C)CC3)cc12)c1cccc(C(F)F)c1F [Example 5]	40 to 70%
C[C@@H](Nc1cnnc2ccc(NC3CCOCC3)cc12)c1cccc(C(F)F)c1F [Example 37]	0 to 40%
C[C@@H](Nc1cnnc2ccc(C3=CCN(C(=O)C4COC4)CC3)cc12)c1cccc(C(F)F)c1F [Example 60]	70 to 100%
C[C@@H](Nc1cnnc2ccc(N3CCN(C(=O)C4CC4)CC3)cc12)c1cccc(C(F)F)c1F [Example 62]	40 to 70%
C[C@@H](Nc1cnnc2ccc(N3C[C@H]4COC[C@H]4C3)cc12)c1cccc(C(F)F)c1F [Example 29]	40 to 70%
C[C@@H](Nc1cnnc2ccc(N3CC4(CN(C)C4)C3)cc12)c1cccc(C(F)F)c1F [Example 7]	70 to 100%
C[C@@H](Nc1cnnc2ccc(N3C[C@H]4C[C@@H]3CO4)cc12)c1cccc(C(F)F)c1F [Example 13]	40 to 70%
C[C@@H](Nc1cnnc2ccc(N3CCN(C(=O)[C@@H]4CCOC4)CC3)cc12)c1cccc(C(F)F)c1F [Example 64]	70 to 100%
C[C@@H](Nc1cnnc2ccc(N3CCSCC3)cc12)c1cccc(C(F)F)c1F [Example 17]	0 to 40%
C[C@@H](Nc1cnnc2ccc(N3CC(C)(O)C3)cc12)c1cccc(C(F)F)c1 [Example 45]	0 to 40%
C[C@@H](Nc1cnnc2ccc(N3CC(O)C3)cc12)c1cccc(C(F)F)c1F [Example 30]	0 to 40%
C[C@@H](Nc1cnnc2ccc(N3CC4CC(C3)O4)cc12)c1cccc(C(F)(F)F)c1 [Example 47]	0 to 40%
